Data origin: the supplement of paper PMC9942255

- System: Bacillus subtilis DB104 (SP-AmyQ fusion secretion)
- Experiment Description: AmyQ secretion efficiency, weighted average sort bin (1 = best secretion, 10 = worst) (bin number (weighted average, 1-10)); higher = lower secretion efficiency
Each entry below carries its reported AmyQ secretion efficiency.

Residue Sequence	AmyQ secretion efficiency
MKLWMRKTLVVLFTIVTFGLVSPPAAIMADKP	1.63
MKKSAAVLLSLGLVSGFSYGAGHVAEAKTK	2.59
MTMLRKIIGWILLLCIIPLFAFTVIMSGKEV	7.42
MLKKIALTLCPAIVGSLLFFTAPASADEE	3.58
MKSKWMSGLLLVAVGFSFTQVMFHAGET	6.46
MKKAAAVLLSLGLVFGFSYGAGHVAEAAKK	5.64
MKKWLIIAVSLAIAIVLFMYTKGEAKTAGM	4.28
MKRIRIPMTLALGAALTIAPLSFKSAEEN	6.9
MPIKKKVMMCLAVTLVFGSMSFPTLTNATSGGFKE	2.8
MPIKKKCLAVTLVFGSMSFPTLTNSGGFKE	5.38
MKRSISIFITCLLITLLKRKKRRASPASAAGT	6.57
MSMMLRRNFKRFIAAFLVLALMISLVPADVLAKST	1.81
MGRIKTKITILLVLLLLLAGGYWYIN	6.88
MRNLTKTSLLLAGLCTAAKKKFVTHASAEES	8.31
MKKLLAAGIIGLLTVSIASPSFEAEK	6.63
MKRLFMKSSKRLFAVVFVFAVKGAPAKAETH	7.81
MIAYFKCLLLVTIMFLGVLFGMQQANHG	6.01
MKLKKRVSMFLVALTMCGGLFVTPAKAEEE	2.9
MFKKHTISLLIIFLLASAVLAKPIEGHTV	3.78

----------
- Test system: Bacillus subtilis DB104 (SP-AmyQ fusion secretion)
- Experiment Description: AmyQ secretion efficiency, weighted average sort bin (1 = best secretion, 10 = worst) (bin number (weighted average, 1-10)); higher = lower secretion efficiency

Residue Sequence	AmyQ secretion efficiency
MLKKIALTLCPAIVGSLLFFTAPASRHVS	6.05
MPIKKKVMMCLAVTLVFGSMSFPTLTNWGGFKE	7.59
MHLIRAAGAVCLAVVLIAGCRFNEDQHQFEGENT	5.53
MKLSVKIAGVLTVAAAAMTAKMYATHKGN	6.71
MRKKCSVCRRKKVLLLSCLSGKSAYAATS	7.48
MRKKRTVITCVMAASLTLGSLLPAGYATAKED	6.07
MRKTIFAFLTGLMMFKRRKKKASASPD	7.76
MKKRLIAPMLKRAASLAFFAMSGSAQAAAY	6.4
MIVIILLFISIIVFLSVIQPQPD	4.48
MFNRLFRVCFLAALIMAFVLTFFVYAQKP	5.95
MKKQIKKKRKKVVLGSTLFAGAASAQSI	7.55
MRKIIGWILLLCIIPLFAFTVIASGKEV	7.63
MKRFLIGAGVAAVILDDEEEADHQTHSQEM	7.2
MPYLKRKYRLLVTGLFMSLFAVTATASAQTG	1.78
MRPVFPLILSAVLFLSCFFGARQTEASCSKR	3.44
MRKKRVITCVMAASLTLGSLLAAAIASAKED	5.2
MKRLFISSAVLLSILLPSGQAHAQSA	2.34
MKLWMRKTLVVLFTIVTFGLVSPPAALMQDKP	2.54
MRPVFPLILSAVLFLSCFFGARQTERSASKR	6.76
MKKRKRRNFKRFIAAFLVLALMISGVPADVLAKST	2.12
MFTNHTISLLIIFLLASAVLAKPIEAHTV	2.28
MKKLLAAGIIGLLTVSIASPQFAAEK	6.75
MKKLVLCVSILAVILSGVALVQLS	5.7
MYSKGLLAGALTATVLFGTCAVDVPGIISPKTAEAASQ	2.38
